System: p38-beta
Construct: gene MAPK11
condition-label: concentration: 1 μM, replicates: in singlicate; n = 1;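 note: KINOMEscan kinase panel screen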
property: %Inh (%)
Enter your answer as a number in %; do not include the unit.

Asked: # input compound: Cc1ccccc1-n1cnc2c(N)ncnc21 ; wanted: its %Inh
Given back: 0

Asked: # input compound: Nc1ncnc2[nH]c(-c3ccccc3)nc12 ; wanted: its %Inh
Given back: 0

Asked: # input compound: CC1=C(C(=O)Nc2cc3cn[nH]c3cc2F)C(c2ccc(C(F)(F)F)cc2)CC(=O)N1 (centres unmarked) ; wanted: its %Inh
Given back: 0

Asked: # input compound: Cc1cccc(-c2nc(C)cc(Nc3ccncc3)n2)n1 ; wanted: its %Inh
Given back: 0

###

This section presents compounds with their documented %Inh values.
System: DAPK1
condition-label: concentration: 1 μM, replicates: in singlicate; n = 1
Enter your answer as a number in %; do not include the unit.

Below: 3 compounds and their reported %Inh.
mol-smiles: Nc1ncnc2[nH]c(-c3ccccc3)nc12
quantitative-result: 4
--
mol-smiles: Cc1ccccc1-n1cnc2c(N)ncnc21
quantitative-result: 94.8
--
mol-smiles: O=C1NC(=O)C(N2CCc3ccccc32)=C1c1ccccc1Cl
quantitative-result: 22

Could you now consider this next compound?
Asked: # input compound: Cc1cccc(-c2nc(-c3ccc(S(C)(=O)=O)cc3)sc2-c2ccnc(NCCc3ccccc3)c2)c1 ; wanted: its %Inh
Given back: 0

###

System: YES
Construct: gene YES1
condition-label: concentration: 1 μM, replicates: in singlicate; n = 1
Entry flag: label 1 if %Inh reaches 10%; label 0 if it does not.

Below, 6 compounds whose answers are already recorded.
compound: CS(=O)(=O)c1ccc(-c2c(-c3ncn[nH]3)sc(N3CCOCC3)c2C#N)cc1
discrete-label: label 1
--
compound: O=C(O)COc1ncnc2cc(-c3ccc4[nH]ncc4c3)sc12
discrete-label: label 0
--
compound: Cc1cccc(-c2nc(C)cc(Nc3ccncc3)n2)n1 [GSK257997]
discrete-label: label 1
--
compound: Nc1ncnc2[nH]c(-c3ccccc3)nc12 [AH5015]
discrete-label: label 1
--
compound: Fc1cc(Cl)ccc1Nc1ccnc2cc(-c3ccc(CN4CCCCC4)o3)ccc12 [GW560116]
discrete-label: label 0
--
compound: Cc1cc(N2Cc3ccccc3C2)nc(Nc2ccc(S(=O)(=O)N3CCOCC3)cc2)n1.Cl [GSK1669917]
discrete-label: label 0

Asked: %Inh >= 10% for Cc1c(Cn2ccn3c(=O)cc(N4CCOCC4)nc23)cccc1C(F)(F)F [GSK2289044] ?
Given back: label 0

Asked: %Inh >= 10% for Cc1cc(-c2ccc3c(c2)CC[C@@H](N[C@@H](C)c2ccccc2)C3)cnc1N.Cl [GW412617] ?
Given back: label 0

###

Test system: WNK3
condition-label: concentration: 1 μM, replicates: in singlicate; n = 1
property: %Inh (%)
Enter your answer as a number in %; do not include the unit.

Below: 3 molecules and their reported %Inh.
molecule: Cc1nnc(-c2ccc3occ(-c4ccc(S(C)=O)cc4)c3c2)[nH]1 (stereo not shown)
study-system: WNK3
u: %
quantitative-result: 0
//
molecule: O=C(Nc1n[nH]c2cc(-c3cccc(F)c3F)ccc12)C1CC1
study-system: WNK3
u: %
quantitative-result: 0
//
molecule: Cl.Oc1ccc(-c2nc(-c3ccccc3)[nH]c2-c2ccncc2)cc1
study-system: WNK3
u: %
quantitative-result: 0

Could you now consider this next molecule?
Asked: # input molecule: COc1cc2ncnc(Nc3ccc4nc(-c5ccccc5)[nH]c4c3)c2cc1OC.Cl ; wanted: its %Inh
Given back: 6

###

This section presents molecules with their documented %Inh values.
System: CSNK1E
condition-label: concentration: 1 μM, replicates: in singlicate; n = 1
Param answer (str): number followed by unit.

mol-smiles: Cc1c(O)cccc1Nc1ccnc2ccc(C(F)(F)F)cc12.Cl
%Inh: 22%

Asked: # input molecule: Cc1ccc(NC(=O)Nc2cccc(Cl)c2)cc1-c1ccc(C(=O)Nc2ccncc2)cc1 ; wanted: its %Inh
Given back: 19%

Asked: # input molecule: CC(=O)Nc1nc2cnc(Nc3cc(NC(=O)c4cccc(CCC#N)c4)ccc3C)nc2s1 ; wanted: its %Inh
Given back: 0%

###

Tested on: CLK1
condition-label: concentration: 1 μM, replicates: in singlicate; n = 1
This section presents molecules with their documented %Inh values.
Enter your answer as a number in %; do not include the unit.

Below: 3 molecules and their reported %Inh.
molecule: CN(C)CCN(C)C(=O)c1cc(-c2ccncc2)c(-c2ccc(Cl)c(O)c2)o1.Cl.Cl [SB-710397]
study-system: CLK1
%Inh (%): 18

molecule: CC(=O)Nc1nc2cnc(Nc3cc(NC(=O)c4cccc(CCC#N)c4)ccc3C)nc2s1
study-system: CLK1
%Inh (%): 0

molecule: NC(=O)c1nnc2ccccc2c1N
study-system: CLK1
%Inh (%): 51

Asked: # input molecule: Cc1ccccc1-n1cnc2c(N)ncnc21 [SKF-97510] ; wanted: its %Inh
Given back: 2

Asked: # input molecule: Cc1ccc(NC(=O)Nc2cc(C(C)(C)C)nn2-c2ccccc2)cc1 [GSK1014915] ; wanted: its %Inh
Given back: 33

Asked: # input molecule: CCn1c(-c2cccnc2O)nc2cnccc21 [SB-736715] ; wanted: its %Inh
Given back: 10

Asked: # input molecule: COc1cc2nccc(Nc3ccc(NC(=O)c4ccc(C)cc4)c(O)c3)c2cc1OC.Cl [GW440132] ; wanted: its %Inh
Given back: 37

Asked: # input molecule: Cc1cc(-c2ccc3c(c2)CC[C@@H](N[C@@H](C)c2ccccc2)C3)cnc1N.Cl [GW412617] ; wanted: its %Inh
Given back: 13

###

This section presents molecules with their documented %Inh values.
System: EPHA1
condition-label: concentration: 1 μM, replicates: in singlicate; n = 1
Enter your answer as a number in %; do not include the unit.

Below: 8 molecules and their reported %Inh.
molecule: COc1ccccc1CNC(=O)c1cc(C(=O)c2ccccc2C)c[nH]1 [GSK364507]
study-system: EPHA1
property: %Inh
u: %
quantitative-result: 25

molecule: COc1cc2ncn(-c3cc(OCC4CCCO4)c(C(N)=O)s3)c2cc1OC (centres unmarked) [GSK204607]
study-system: EPHA1
property: %Inh
u: %
quantitative-result: 3

molecule: NC(=O)c1nnc2ccccc2c1N
study-system: EPHA1
property: %Inh
u: %
quantitative-result: 14

molecule: COc1ccc(CNC(=O)NC2CCN(c3ccnc(Nc4cc(OC)c(OC)c(OC)c4)n3)C2)cc1 (centres unmarked) [GSK1379748]
study-system: EPHA1
property: %Inh
u: %
quantitative-result: 1

molecule: Cc1cc(-c2ccc3c(c2)CC[C@@H](N[C@@H](C)c2ccccc2)C3)cnc1N.Cl [GW412617]
study-system: EPHA1
property: %Inh
u: %
quantitative-result: 14

molecule: Cc1csc(-c2nc(Nc3ccncc3)c3ccccc3n2)n1 [GW869640]
study-system: EPHA1
property: %Inh
u: %
quantitative-result: 0

molecule: O=c1cc(N2CCOCC2)nc2n(Cc3cccc(Cl)c3Cl)ccn12 [GSK2286295]
study-system: EPHA1
property: %Inh
u: %
quantitative-result: 0

molecule: CC(=O)Nc1nc2cnc(Nc3cc(NC(=O)c4cccc(CCC#N)c4)ccc3C)nc2s1
study-system: EPHA1
property: %Inh
u: %
quantitative-result: 0

Asked: # input molecule: Nc1nc(-c2nccs2)c(-c2ccnc3ccccc23)s1 [GW693542] ; wanted: its %Inh
Given back: 5

Asked: # input molecule: CCn1c(-c2cccnc2O)nc2cnccc21 [SB-736715] ; wanted: its %Inh
Given back: 0

Asked: # input molecule: O=C1NC(=O)C(N2CCc3ccccc32)=C1c1ccccc1Cl [SB-373598] ; wanted: its %Inh
Given back: 10

###

System: NEK7
condition-label: concentration: 1 μM, replicates: in singlicate; n = 1
property: %Inh (%)
Enter your answer as a number in %; do not include the unit.

Below: 6 compounds and their reported %Inh.
compound: Cc1csc(-c2nc(Nc3ccncc3)c3ccccc3n2)n1 [GW869640]
study-system: NEK7
property: %Inh
quantitative-result: 0

compound: Cc1cccc(-c2nc(-c3ccc(S(C)(=O)=O)cc3)sc2-c2ccnc(NCCc3ccccc3)c2)c1
study-system: NEK7
property: %Inh
quantitative-result: 0

compound: COc1ccc(Nc2nccc(-c3cccc(NC(=O)c4cc5cc(F)ccc5[nH]4)c3)n2)cc1 [GSK1229782]
study-system: NEK7
property: %Inh
quantitative-result: 0

compound: Fc1cccc(COc2nnc(-c3ccc4c(c3)CCO4)o2)c1
study-system: NEK7
property: %Inh
quantitative-result: 19

compound: COc1ccc(Nc2nccc(NCCNC(=O)Nc3ccccc3F)n2)cc1 [GSK1379901]
study-system: NEK7
property: %Inh
quantitative-result: 0

compound: Fc1cc(Cl)ccc1Nc1ccnc2cc(-c3ccc(CN4CCCCC4)o3)ccc12 [GW560116]
study-system: NEK7
property: %Inh
quantitative-result: 0

Asked: # input compound: Fc1cc(Cl)ccc1Nc1ccnc2cc(I)ccc12 [GW551191] ; wanted: its %Inh
Given back: 0

Asked: # input compound: Cc1cc(N2Cc3ccccc3C2)nc(Nc2ccc(S(=O)(=O)N3CCOCC3)cc2)n1.Cl [GSK1669917] ; wanted: its %Inh
Given back: 0

Asked: # input compound: Cc1ccccc1-n1cnc2c(N)ncnc21 [SKF-97510] ; wanted: its %Inh
Given back: 12

Asked: # input compound: COC(=O)c1c(-c2ccccc2)c2cc(C(=O)O)ccc2c(=O)n1Cc1ccccc1 ; wanted: its %Inh
Given back: 0

Asked: # input compound: Cl.Oc1ccc(-c2nc(-c3ccccc3)[nH]c2-c2ccncc2)cc1 [SB-428218] ; wanted: its %Inh
Given back: 0

Asked: # input compound: Cc1cccc(-c2nc(Nc3ccncc3)c3ccccc3n2)n1 [GW855857] ; wanted: its %Inh
Given back: 0

Asked: # input compound: Cc1ccc(NC(=O)Nc2cc(C(C)(C)C)nn2-c2ccccc2)cc1 [GSK1014915] ; wanted: its %Inh
Given back: 6

Asked: # input compound: Cn1cncc1-c1ccc2ncnc(Nc3ccc(OCc4ccccc4)cc3)c2c1 [GW320571] ; wanted: its %Inh
Given back: 0
